Form field: pKi (one value per entry).
Target: Induced myeloid leukemia cell differentiation protein Mcl-1 (Homo sapiens, UniProt Q07820)
Sequence (Q07820 whole entry): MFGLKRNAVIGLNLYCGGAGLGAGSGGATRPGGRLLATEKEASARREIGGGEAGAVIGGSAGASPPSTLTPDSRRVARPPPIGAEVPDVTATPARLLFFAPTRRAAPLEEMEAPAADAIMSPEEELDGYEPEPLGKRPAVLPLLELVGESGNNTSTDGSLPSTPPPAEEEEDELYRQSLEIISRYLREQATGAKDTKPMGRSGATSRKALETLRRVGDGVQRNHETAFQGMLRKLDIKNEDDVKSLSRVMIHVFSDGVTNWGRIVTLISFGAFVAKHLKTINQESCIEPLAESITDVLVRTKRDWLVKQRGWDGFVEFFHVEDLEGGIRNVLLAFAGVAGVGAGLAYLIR
Test: Inhibition of 5-FAM-Bid-BH3 peptide binding to Mcl1 (unknown origin) pre-incubated for 30 mins followed by further incubation with 5-FAM-Bid-BH3 peptide for 20 mins by fluorescence polarization assay
Scale for pKi: -log10 of concentration given in mol/L; no unit attached.

Answered cases to consult:
| Molecular string | pKi |
| --- | --- |
| COc1ccc2c(c1)c(CC(=O)N[C@@H](Cc1ccccc1)C(=O)NS(=O)(=O)c1ccc(Cl)c([N+](=O)[O-])c1)c(C)n2-c1ccc(-c2ccccc2)cc1 | 6.32 |
| COc1ccc(S(=O)(=O)NC(=O)[C@H](Cc2ccccc2)NC(=O)Cc2c(C)n(-c3ccc(-c4ccccc4)cc3)c3ccc(OC)cc23)cc1 | 6.06 |
| COc1ccc2c(c1)c(CC(=O)N[C@@H](Cc1ccccc1)C(=O)NS(=O)(=O)c1ccccc1)c(C)n2-c1ccc(-c2ccccc2)cc1 | 6.02 |

As a next step, examine the compound that follows.
Form field pKi, entry Cc1ccc(S(=O)(=O)NC(=O)[C@H](Cc2ccccc2)N2C(=O)/C(=C/c3ccc(-c4ccccc4)cc3)SC2=S)cc1 : 6.33

====

Test system: K562
Assay: Antiproliferative activity against human K562 cells incubated for 48 hrs by MTT assay
Format: functional, cell-based
Settings: K562, 48 h
Observation type: IC50 (µM)
Enter your answer as a number in µM; do not include the unit.

Answered cases to consult:
| Molecular string | IC50 / µM |
| --- | --- |
| Cc1ccc(S(=O)(=O)NC(=O)[C@H](Cc2ccccc2)N2C(=O)/C(=C/c3ccc(-c4ccccc4)cc3)SC2=S)cc1 | 44 |
| COc1ccc(S(=O)(=O)NC(=O)[C@H](Cc2ccccc2)NC(=O)Cc2c(C)n(-c3ccc(-c4ccccc4)cc3)c3ccc(OC)cc23)cc1 | 27.5 |

Bench note, K562: COc1ccc2c(c1)c(CC(=O)N[C@@H](Cc1ccccc1)C(=O)NS(=O)(=O)c1ccccc1)c(C)n2-c1ccc(-c2ccccc2)cc1 , IC50 reads 18.8

Bench note, K562: COc1ccc2c(c1)c(CC(=O)N[C@@H](Cc1ccccc1)C(=O)NS(=O)(=O)c1ccc(Cl)c([N+](=O)[O-])c1)c(C)n2-c1ccc(-c2ccccc2)cc1 , IC50 reads 13

====

Target: UniProt:Q07817
Sequence (Q07817 whole entry): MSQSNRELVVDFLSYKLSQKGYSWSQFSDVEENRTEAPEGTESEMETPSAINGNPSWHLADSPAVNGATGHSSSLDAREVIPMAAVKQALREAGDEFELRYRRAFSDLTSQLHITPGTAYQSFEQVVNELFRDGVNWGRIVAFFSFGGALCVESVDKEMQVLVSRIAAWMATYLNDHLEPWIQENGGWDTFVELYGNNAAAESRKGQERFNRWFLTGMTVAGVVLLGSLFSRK
Assay: Inhibition of 5-FAM-Bid-BH3 peptide binding to Bcl-XL (unknown origin) pre-incubated for 30 mins followed by further incubation with 5-FAM-Bid-BH3 peptide for 20 mins by fluorescence polarization assay
Conditions: read-out: Ki
Observation type: pKi
Scale for pKi: -log10 of concentration given in mol/L; no unit attached.

Form field pKi, entry Cc1ccc(S(=O)(=O)NC(=O)[C@H](Cc2ccccc2)N2C(=O)/C(=C/c3ccc(-c4ccccc4)cc3)SC2=S)cc1 : 5.92

====

Reported pKi for target or system Apoptosis regulator Bcl-2 (Homo sapiens), by entry.
pKi: −log10 of the molar value.

Answered cases to consult:
| Molecular string | Measurement target | pKi |
| --- | --- | --- |
| COc1ccc2c(c1)c(CC(=O)N[C@@H](Cc1ccccc1)C(=O)NS(=O)(=O)c1ccc(Cl)c([N+](=O)[O-])c1)c(C)n2-c1ccc(-c2ccccc2)cc1 | Apoptosis regulator Bcl-2 (Homo sapiens) | 6.24 |
| COc1ccc2c(c1)c(CC(=O)N[C@@H](Cc1ccccc1)C(=O)NS(=O)(=O)c1ccc(-c3ccccc3)cc1)c(C)n2-c1ccc(-c2ccccc2)cc1 | Apoptosis regulator Bcl-2 (Homo sapiens) | < 5.00 |
| COc1ccc(S(=O)(=O)NC(=O)[C@H](Cc2ccccc2)NC(=O)Cc2c(C)n(-c3ccc(-c4ccccc4)cc3)c3ccc(OC)cc23)cc1 | Apoptosis regulator Bcl-2 (Homo sapiens) | 6.33 |
| COc1ccc2c(c1)c(CC(=O)NS(=O)(=O)c1ccccc1)c(C)n2-c1ccc(-c2ccccc2)cc1 | Apoptosis regulator Bcl-2 (Homo sapiens) | < 5.00 |
| COc1ccc2c(c1)c(CC(=O)N[C@@H](Cc1c[nH]c3ccccc13)C(=O)NS(=O)(=O)c1ccccc1)c(C)n2-c1ccc(-c2ccccc2)cc1 | Apoptosis regulator Bcl-2 (Homo sapiens) | < 5.00 |

Bench note, Apoptosis regulator Bcl-2 (Homo sapiens): COc1ccc2c(c1)c(CC(=O)NS(=O)(=O)c1ccc(NCc3ccccc3)c([N+](=O)[O-])c1)c(C)n2-c1ccc(C)cc1 , pKi reads < 5.00

Bench note, Apoptosis regulator Bcl-2 (Homo sapiens): COc1ccc(S(=O)(=O)NC(=O)[C@H](Cc2c[nH]c3ccccc23)NC(=O)Cc2c(C)n(-c3ccc(-c4ccccc4)cc3)c3ccc(OC)cc23)cc1 , pKi reads < 5.00

Bench note, Apoptosis regulator Bcl-2 (Homo sapiens): COc1ccc2c(c1)c(CC(=O)NS(=O)(=O)c1ccc(Cl)c([N+](=O)[O-])c1)c(C)n2-c1ccc(C)cc1 , pKi reads < 5.00

Bench note, Apoptosis regulator Bcl-2 (Homo sapiens): COc1ccc2c(c1)c(CC(=O)N[C@@H](Cc1ccc(OCc3ccc([N+](=O)[O-])cc3)cc1)C(=O)NS(=O)(=O)c1ccc(Cl)c([N+](=O)[O-])c1)c(C)n2-c1ccc(C)cc1 , pKi reads 6.14

Bench note, Apoptosis regulator Bcl-2 (Homo sapiens): COc1ccc2c(c1)c(CC(=O)NS(=O)(=O)c1ccc([N+](=O)[O-])cc1)c(C)n2-c1ccc(C)cc1 , pKi reads < 5.00

Bench note, Apoptosis regulator Bcl-2 (Homo sapiens): COc1ccc(S(=O)(=O)NC(=O)Cc2c(C)n(-c3ccc(C)cc3)c3ccc(OC)cc23)cc1 , pKi reads < 5.00
